Target: BACE1 (Homo sapiens (Human), UniProt P56817)
Sequence (P56817 46-501): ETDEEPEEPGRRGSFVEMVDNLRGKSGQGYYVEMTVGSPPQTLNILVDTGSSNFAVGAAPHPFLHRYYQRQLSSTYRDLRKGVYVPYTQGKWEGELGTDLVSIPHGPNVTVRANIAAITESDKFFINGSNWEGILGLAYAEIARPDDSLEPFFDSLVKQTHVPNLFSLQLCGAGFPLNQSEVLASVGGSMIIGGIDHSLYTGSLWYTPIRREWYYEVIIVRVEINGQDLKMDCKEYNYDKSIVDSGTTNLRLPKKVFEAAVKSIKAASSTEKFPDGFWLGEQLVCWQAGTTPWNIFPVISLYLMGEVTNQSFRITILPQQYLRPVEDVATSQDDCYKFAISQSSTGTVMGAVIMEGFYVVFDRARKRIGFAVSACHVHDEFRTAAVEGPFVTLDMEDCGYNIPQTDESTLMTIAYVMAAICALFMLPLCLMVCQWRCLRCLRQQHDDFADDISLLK
Test: BACE1 FP assay
Assay type: biochemical
Conditions: pH 4.5
Reported pIC50 values follow for various molecules
Just the number, please; pIC50 means minus log10 of the concentration in mol/L.

In the examples that follow, each entry is paired with its recorded pIC50.
CC1(c2cc(NC(=O)c3ccc(Cl)cn3)ccc2F)CC2(CCOCC2)OC(N)=N1 (stereo not drawn) = 7.14
C[C@@]1(c2cc(NC(=O)c3ncc(Cl)cc3F)ccc2F)CC2(CCC2)OC(N)=N1 = 7.06
C[C@@]1(c2cc(NC(=O)c3ccc(Cl)cn3)ccc2F)CC2(CCC(F)(F)CC2)OC(N)=N1 = 7.22
C[C@]1(c2cc(NC(=O)c3ccc(F)cn3)ccc2F)N=C(N)OC2(CCOCC2)C1(F)F = 6.52
CC#Cc1cncc(-c2csc(C3(C)CC4(CCOCC4)OC(N)=N3)c2)c1 (stereo not drawn) = 5.64
CC#Cc1cncc(-c2csc(C3(C)CC4(CCOCC4)SC(N)=N3)c2)c1 (stereo not drawn) = 6.80
C[C@@]1(c2cc(NC(=O)c3ccc(Cl)cc3)ccc2F)CC2(CCC2)OC(N)=N1 = 6.08

Fill in pIC50 for CC1(c2cc(NC(=O)c3ccc(F)cn3)ccc2F)CC2(CCOCC2)OC(N)=N1 (stereo not drawn) tested with BACE1 (Homo sapiens (Human), UniProt P56817). 6.55

---

Molecular target: BACE1 (Homo sapiens (Human))
Assay: BACE1 AlphaScreen assay (displacement of biotinylated BACE1 binding site probe)
Conditions: read-out: BACE1 AS IC50
endpoint_label: pIC50
Formally, pIC50 is defined as -log10 of the concentration c, with c in mol/L.

CC1(c2cc(NC(=O)c3ccc(F)cn3)ccc2F)N=C(N)OC2(CCC2)C1(F)F (centres unmarked) [Compound 9-159] = 7.40
Cc1nc(C(=O)Nc2ccc(F)c([C@]3(C)CC4(CCC4)OC(N)=N3)c2)co1 [Compound 9-138] = 7.96

Specify measured pIC50 for CC1(c2cc(NC(=O)c3ccc(Cl)cn3)ccc2F)CC2(CCOCC2)OC(N)=N1 (centres unmarked) [Compound 9-121] . 8.05

Query pIC50 for CC1(c2cc(NC(=O)c3ccc(Cl)cn3)ccc2F)CC2(CCOCC2)SC(N)=N1 (centres unmarked) [Compound 9-150] 8.05

State its pIC50: CC1(c2cc(NC(=O)c3ccc(Cl)cn3)ccc2F)N=C(N)OC2(CCC2)C1(F)F (centres unmarked) [Compound 9-160] 7.71

Fill in reported pIC50 for this entry: C[C@]1(c2cc(NC(=O)c3ccc(F)cn3)ccc2F)CC2(CCC2)OC(N)=N1 [Compound 9-127] 5.88

---

Target: BACE1 (Homo sapiens (Human), UniProt P56817)
Assay: BACE1 AlphaScreen assay (displacement of biotinylated BACE1 binding site probe)
Settings: read-out: BACE1 AS IC50
Quick reference for pIC50 among some compounds
Please keep in mind that pIC50 is minus log10 of the molar concentration; only the number is needed.

Indicate the recorded pIC50 value for this compound: C[C@@]1(c2cc(NC(=O)c3ccc(C#N)cn3)ccc2F)CC2(CCC2)OC(N)=N1 [Compound 9-130] 8.22

Please report pIC50 for the following compound: C[C@@]1(c2cc(NC(=O)c3ccc(F)cn3)ccc2F)CC2(CCOCC2)OC(N)=N1 [Compound 9-128] 8.40

Give a short answer stating reported pIC50 for CC1(c2cc(NC(=O)c3ccc(F)cn3)ccc2F)CC2(CCC2)OC(N)=N1 (stereo not shown) [Compound 9-125] . 7.54

Let me know recorded pIC50 for CC#Cc1cncc(-c2csc(C3(C)CC4(COC4)SC(N)=N3)c2)c1 (stereo not shown) [Compound 8-112] , thanks. 7.77
